Taken from the RNAGym collection of RNA variant scans (doi:10.1093/nar/gkz1192).

B1: CPEB3 Ribozyme (parent)
chain: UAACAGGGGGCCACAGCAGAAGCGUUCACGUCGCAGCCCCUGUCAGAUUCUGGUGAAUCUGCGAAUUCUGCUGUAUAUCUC

# Variants of: B1
# Experiment description: self-cleavage, relative activity (ratio to wild type); higher = more cleavage; in vitro, sequencing
As shown below, each of these variants has a reported self-cleavage value.

{"Variant label": "U58C U76C", "self-cleavage": 0.67}
{"Variant label": "A57U U78C", "self-cleavage": 0.68}
{"Variant label": "U26C U48G", "self-cleavage": 0.47}
{"Variant label": "G10U A20G", "self-cleavage": 0.36}
{"Variant label": "U31A U43A", "self-cleavage": 0.7}
{"Variant label": "G7A C59A", "self-cleavage": 0.04}
{"Variant label": "G9A G52A", "self-cleavage": 0.24}
{"Variant label": "G30A U72A", "self-cleavage": 0.2}
{"Variant label": "G46A U67A", "self-cleavage": 0.18}
{"Variant label": "U51G G63U", "self-cleavage": 1.1}
{"Variant label": "A5C U60A", "self-cleavage": 0.64}
{"Variant label": "C50A A77U", "self-cleavage": 0.67}
{"Variant label": "A18C C71A", "self-cleavage": 0.09}
{"Variant label": "A2G C37U", "self-cleavage": 0.66}
{"Variant label": "A15G A20C", "self-cleavage": 0.18}
{"Variant label": "C23A G73A", "self-cleavage": 0.23}
{"Variant label": "G33U U76C", "self-cleavage": 0.32}
{"Variant label": "G30A U49C", "self-cleavage": 0.16}
{"Variant label": "U26A A28G", "self-cleavage": 0.38}
{"Variant label": "A15C U72C", "self-cleavage": 1.1}
{"Variant label": "A20G C38A", "self-cleavage": 0.37}
{"Variant label": "A47G", "self-cleavage": 1.01}
